# IC50 annotations
Assay target: Human CYP8B1 (Homo sapiens, UniProt Q9UNU6)
Sequence (Q9UNU6 whole entry): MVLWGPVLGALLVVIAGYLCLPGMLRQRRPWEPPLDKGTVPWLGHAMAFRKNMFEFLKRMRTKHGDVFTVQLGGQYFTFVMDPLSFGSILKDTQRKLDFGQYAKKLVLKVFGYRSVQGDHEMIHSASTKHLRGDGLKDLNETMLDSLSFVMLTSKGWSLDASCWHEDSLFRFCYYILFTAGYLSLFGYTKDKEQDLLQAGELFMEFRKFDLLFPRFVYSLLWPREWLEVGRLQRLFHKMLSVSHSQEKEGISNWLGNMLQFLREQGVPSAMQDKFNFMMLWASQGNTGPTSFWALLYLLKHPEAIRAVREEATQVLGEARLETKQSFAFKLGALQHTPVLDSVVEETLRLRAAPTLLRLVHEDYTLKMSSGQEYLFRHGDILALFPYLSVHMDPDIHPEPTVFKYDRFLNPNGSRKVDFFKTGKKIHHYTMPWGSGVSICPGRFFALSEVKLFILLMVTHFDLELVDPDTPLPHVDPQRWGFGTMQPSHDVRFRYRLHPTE
Protocol notes: Human CYP8B1 Liver Microsome Assay
Experimental context: read-out: Human CYP8B1 IC50; human liver microsomes; substrate 7a-hydroxy-4-cholesten-3-one, NADPH; RapidFire MS detection of 7α,12α-dihydroxy-4-cholesten-3-one
Just the number in nM, nothing appended.

Compound	Assay target	Meas value
C[C@@H]1CN(c2c(C#N)cnc3ccc(C(F)(F)F)cc23)CC[C@@H]1C(=O)N1CCn2c(nnc2C(F)(F)F)C1 (single isomer, unassigned) [Example 119a]	Human CYP8B1 (Homo sapiens, UniProt Q9UNU6)	41.4

// switching to the query compound
Problem: Consider the compound shown here: C[C@H]1CN(c2c(C#N)cnc3ccc(C(F)(F)F)cc23)CC[C@H]1C(=O)N1CCn2c(nnc2C(F)(F)F)C1 (single isomer, unassigned) [Example 119b] What is its recorded IC50?
Solution: 0.3

----------
Assay target: Human CYP8B1 (Homo sapiens)
Protocol notes: Human CYP8B1 Liver Microsome Assay
Experimental context: Human CYP8B1 IC50, human liver microsomes; substrate 7a-hydroxy-4-cholesten-3-one, NADPH; RapidFire MS detection of 7α,12α-dihydroxy-4-cholesten-3-one
# IC50 annotations
Just the number in nM, nothing appended.

These solved cases illustrate the format of a correct answer.
> print(dat)
                                   compound  metric.name  meas.value
1  C[C@@H]1CN(c2c(C#N)cnc3c(F)cc(C(F)F)cc23)CC[C@@H]1C(=O)N1CCn2c(nnc2C(F)(F)F)C1 [Example 88]         IC50         0.7
2  C[C@@H]1CN(c2c(C#N)cnc3cc(OCC4CC4)ccc23)CC[C@@H]1C(=O)N1CCn2c(nnc2C(F)(F)F)C1 [Example 100]         IC50        0.35
3  CC(C)COc1ccc2c(N3CC[C@H](C(=O)N4CCn5c(nnc5C(F)(F)F)C4)[C@H](C)C3)c(C#N)cnc2c1 [Example 101]         IC50        0.33
4  C[C@@H]1CN(c2c(C#N)c[n+]([O-])c3ccc(Cl)cc23)CC[C@@H]1C(=O)N1CCn2c(nnc2C(F)(F)F)C1 [Example 123]         IC50         1.9
5  C[C@@H]1CN(c2c(C#N)cnc3cc(OCC(F)F)ccc23)CC[C@@H]1C(=O)N1CCn2c(nnc2C(F)(F)F)C1 [Example 102]         IC50        0.33

Problem: Consider the compound shown here: Cn1nc(C(F)(F)F)c2c1CN(C(=O)C1CCN(c3c(C#N)cnc4ccc(Cl)cc34)CC1)CC2 [Example 113] What is its recorded IC50?
Solution: 16.1

Problem: Another compound to look at: Cc1ccc2nc(C)c(C#N)c(N3CCC(C(=O)N4CCn5c(nnc5C(F)(F)F)C4)CC3)c2c1 [Example 52]
Solution: 118

----------
# log10(IC50) annotations
Assay target: Human CYP8B1 (Homo sapiens, UniProt Q9UNU6)
Protocol notes: Human CYP8B1 Liver Microsome Assay
Experimental context: Human CYP8B1 IC50, human liver microsomes; substrate 7a-hydroxy-4-cholesten-3-one, NADPH; RapidFire MS detection of 7α,12α-dihydroxy-4-cholesten-3-one
Base-10 log of IC50, unit nM.

These solved cases illustrate the format of a correct answer.
> print(dat)
                                   compound                              assay.target  metric.name  meas.value
1  N#Cc1cnc2ccc(Cl)cc2c1N1CCC(F)(C(=O)N2CCn3c(nnc3C(F)(F)F)C2)CC1  Human CYP8B1 (Homo sapiens, UniProt Q9UNU6)  log10(IC50)        2.23
2  COc1ccc2c(N3CCC(C(=O)N4CCn5c(nnc5C(F)(F)F)C4)CC3)c(C#N)cnc2c1F  Human CYP8B1 (Homo sapiens, UniProt Q9UNU6)  log10(IC50)        1.69
3  C[C@@H]1CN(c2c(C#N)cnc3c(F)cc(F)cc23)CC[C@@H]1C(=O)N1CCn2c(nnc2C(F)(F)F)C1  Human CYP8B1 (Homo sapiens, UniProt Q9UNU6)  log10(IC50)       -0.31

Problem: Consider the compound shown here: `C[C@@H]1CN(c2c(C#N)cnc3c(F)cccc23)CC[C@@H]1C(=O)N1CCn2c(nnc2C(F)(F)F)C1` What is its recorded log10(IC50)?
Solution: 0.04

Problem: Another compound to look at: `N#Cc1cnc2ccc(Cl)cc2c1N1CCC(C(=O)N2CCc3cn[nH]c3C2)CC1`
Solution: 2.15

Problem: Another compound to look at: `COc1cccc2c(N3CC[C@H](C(=O)N4CCn5c(nnc5C(F)(F)F)C4)[C@H](C)C3)c(C#N)cnc12`
Solution: 0.40

Problem: Another compound to look at: COc1ccc2c(N3C[C@@H](C)N(C(=O)N4CCn5c(nnc5C(F)(F)F)C4)[C@H](C)C3)c(C#N)cnc2c1 [Example 83a]
Solution: 1.05
